The reported measurements were obtained from patent US6215002A.

Here the recorded IC50 is given for each entry.
# SUBJECT OF TEST: human neutrophil elastase (Homo sapiens)
# ASSAY OVERVIEW: In vitro assay of human neutrophil elastase (HNE)
# Assay type: biochemical
# SETTINGS: 118 nM purified human neutrophil elastase, pH 8.6, 15 min incubation at 30° C., MeO-succinyl-alanyl-alanyl-prolyl-valyl-p-nitroanilide substrate; read-out: HNE IC50
Where a name gives a salt, the structure may show the parent alone.
A number alone suffices; assume nM.

Sample answers from the record:
CC(C)[C@H]1C(=O)N(S(C)(=O)=O)[C@H]2CCN(C(=O)c3cccs3)[C@H]12 (relative stereo) [Example 249]: 68
CCC[C@H]1C(=O)N(S(=O)(=O)c2ccc([N+](=O)[O-])cc2)[C@H]2CCN(C(=O)CCCCCN3CCCCC3)[C@H]12 (relative stereo) [Example 203]: 38
CCC[C@H]1C(=O)N(S(C)(=O)=O)[C@H]2CCN(S(=O)(=O)c3ccc(N(C)C)cc3)[C@H]12 (relative stereo) [Example 221]: 27
CCC[C@H]1C(=O)N(S(C)(=O)=O)[C@H]2CCN(C(=O)CN3CCN(C)CC3)[C@H]12 (relative stereo) [Example 105, hydrochloride]: 193
CCC[C@H]1C(=O)N(S(C)(=O)=O)[C@H]2CCN(S(=O)(=O)c3ccc(C(=O)NCCN4CCCCC4)cc3)[C@H]12 (relative stereo) [Example 121, hydrochloride]: 14
CCC[C@H]1C(=O)N(S(=O)(=O)c2cccc3nsnc23)[C@H]2CCN(C(=O)CCN3CCCCC3)[C@H]12 (relative stereo) [Example 168]: 208
CCC[C@H]1C(=O)N(S(C)(=O)=O)[C@H]2CCN(C(=O)CN3CCCC3)[C@H]12 (relative stereo) [Example 108, hydrochloride]: 481
CCC[C@H]1C(=O)N(S(C)(=O)=O)[C@H]2CCN(C(=O)c3ccc(S(C)(=O)=O)cc3)[C@H]12 (relative stereo) [Example 245]: 9
CCC[C@H]1C(=O)N(S(C)(=O)=O)[C@H]2CCN(C(=O)CN3CCCCC3)[C@H]12 (relative stereo) [Example 100, hydrochloride]: 650
CCC[C@H]1C(=O)N(S(C)(=O)=O)[C@H]2CCN(S(=O)(=O)c3ccc(C(=O)NC)cc3)[C@H]12 (relative stereo) [Example 124]: 8

Short answer for CCC[C@H]1C(=O)N(S(C)(=O)=O)[C@H]2CCN(S(=O)(=O)Cc3cccc(-c4nnn[nH]4)c3)[C@H]12 (relative stereo) [Example 27] : IC50 was 55

Short answer for CCC[C@H]1C(=O)N(S(=O)(=O)C(C)C)[C@H]2CCN(S(=O)(=O)CCCN3CCCCC3)[C@H]12 (relative stereo) [Example 166] : IC50 was 287

* * *

# Tested on: Intracellular elastase
# ASSAY OVERVIEW: Oral in vivo model using IL-8 induced lung infiltrates for the assessment of intracellular elastase inhibition (hamster test)
# SETTINGS: effective dose of less than 40 mg/kg, IL-8 intratracheal
Structures can show the parent of a compound that is named as a salt.
MEASUREMENT LABEL: duration of effect

CC(C)[C@H]1C(=O)N(S(C)(=O)=O)[C@H]2CCN(C(=O)/C=C/c3ccc(CN(C)C)cc3)[C@H]12 (relative stereo) [Example 159, hydrochloride]: at least 6 hours
CCC[C@H]1C(=O)N(S(C)(=O)=O)[C@H]2CCN(C(=O)CCCCCN3CCCCCC3)[C@H]12 (relative stereo) [Example 59, hydrochloride]: at least 6 hours
CC(C)[C@H]1C(=O)N(S(C)(=O)=O)[C@H]2CCN(C(=O)c3ccc(CN4C(C)CCCC4C)cc3)[C@H]12.Cl (relative stereo): at least 6 hours

* * *

# SUBJECT OF TEST: human neutrophil elastase (Homo sapiens, UniProt P08246)
# ASSAY OVERVIEW: In vitro assay of human neutrophil elastase (HNE)
# Format: biochemical
# SETTINGS: 118 nM purified human neutrophil elastase, pH 8.6, 15 min incubation at 30° C., MeO-succinyl-alanyl-alanyl-prolyl-valyl-p-nitroanilide substrate; read-out: HNE IC50
Where a name gives a salt, the structure may show the parent alone.
MEASUREMENT LABEL: IC50 (µM)
A number alone suffices; assume µM.

COC(=O)[C@@H]1CCCN1Cc1ccc(C(=O)N2CC[C@H]3[C@H]2[C@@H](C(C)C)C(=O)N3S(C)(=O)=O)cc1 (relative stereo) [Example 183, hydrochloride]: 0.046
CCC[C@H]1C(=O)N(S(C)(=O)=O)[C@H]2CCN(C(=O)c3ccc[nH]3)[C@H]12 (relative stereo) [Example 242]: 0.022

Could you now look at the following compound, please?
Short answer for CCC[C@H]1C(=O)N(S(C)(=O)=O)[C@H]2CCN(C(=O)CCN3CCCCCC3)[C@H]12 (relative stereo) [Example 99, hydrochloride] : IC50 was 0.079

* * *

Here the recorded IC50 is given for each entry.
# SUBJECT OF TEST: human neutrophil elastase (Homo sapiens, UniProt P08246)
# Sequence (P08246 30-267): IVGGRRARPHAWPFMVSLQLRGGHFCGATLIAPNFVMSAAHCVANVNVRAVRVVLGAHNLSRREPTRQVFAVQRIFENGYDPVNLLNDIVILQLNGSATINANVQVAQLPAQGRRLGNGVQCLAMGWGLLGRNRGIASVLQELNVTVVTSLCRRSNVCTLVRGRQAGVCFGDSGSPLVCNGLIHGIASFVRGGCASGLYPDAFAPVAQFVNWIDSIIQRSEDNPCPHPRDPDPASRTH
# ASSAY OVERVIEW: In vitro assay of human neutrophil elastase (HNE)
# Type: biochemical
# SETTINGS: 118 nM purified human neutrophil elastase, pH 8.6, 15 min incubation at 30° C., MeO-succinyl-alanyl-alanyl-prolyl-valyl-p-nitroanilide substrate; read-out: HNE IC50
Counter-ions that a name gives are not always drawn.
A number alone suffices; assume nM.

Sample answers from the record:
CCC[C@H]1C(=O)N(S(C)(=O)=O)[C@H]2CCN(S(=O)(=O)c3ccc(C(=O)NCCN(C)C)cc3)[C@H]12 (relative stereo) [Example 123, hydrochloride]: 14
C=CC[C@H]1C(=O)N(S(=O)(=O)c2ccc3c(c2)CCCC3)[C@H]2CCN(C(=O)OCc3ccccc3)[C@H]12 (relative stereo): 57
CCC[C@H]1C(=O)N(S(=O)(=O)c2cccc3ccccc23)[C@H]2CCN(C(=O)C3CCN(C(=O)OC(C)(C)C)CC3)[C@H]12 (relative stereo): 267

Short answer for CCC[C@H]1C(=O)N(S(C)(=O)=O)[C@H]2CCN(C(=O)CNC(C)=O)[C@H]12 (relative stereo) : IC50 was 42

Short answer for CCC[C@H]1C(=O)N(S(C)(=O)=O)[C@H]2CCN(C(=O)CCN(C)C)[C@H]12 (relative stereo) [Example 90, hydrochloride] : IC50 was 305

Short answer for CCC[C@H]1C(=O)N(S(C)(=O)=O)[C@H]2CCN(C(=O)c3ccc(C(F)(F)F)cc3)[C@H]12 (relative stereo) : IC50 was 11

* * *

# Test system: Intracellular elastase
# ASSAY OVERVIEW: Oral in vivo model using IL-8 induced lung infiltrates for the assessment of intracellular elastase inhibition (hamster test)
# SETTINGS: effective dose of less than 40 mg/kg, IL-8 intratracheal
Where a name gives a salt, the structure may show the parent alone.
MEASUREMENT LABEL: duration of effect

CC(C)[C@H]1C(=O)N(S(C)(=O)=O)[C@H]2CCN(C(=O)c3cccc(CN(C)C)c3)[C@H]12 (relative stereo) [Example 253, hydrochloride]: at least 6 hours
CC(C)[C@H]1C(=O)N(S(C)(=O)=O)[C@H]2CCN(C(=O)c3ccc(CN4CCCCC4)o3)[C@H]12.Cl (relative stereo) [Example 250]: at least 6 hours
CC(C)[C@H]1C(=O)N(S(C)(=O)=O)[C@H]2CCN(C(=O)c3cccc(CN4CCN(C)CC4)c3)[C@H]12.Cl.Cl (relative stereo) [Example 189]: at least 6 hours

* * *

Here the recorded IC50 is given for each entry.
# SUBJECT OF TEST: human neutrophil elastase (Homo sapiens, UniProt P08246)
# ASSAY OVERVIEW: In vitro assay of human neutrophil elastase (HNE)
# Format: biochemical
# SETTINGS: 118 nM purified human neutrophil elastase, pH 8.6, 15 min incubation at 30° C., MeO-succinyl-alanyl-alanyl-prolyl-valyl-p-nitroanilide substrate; read-out: HNE IC50
Where a name gives a salt, the structure may show the parent alone.

Sample answers from the record:
CCC[C@H]1C(=O)N(S(C)(=O)=O)[C@H]2CCN(C(=O)CCCCCN3CCCCCC3)[C@H]12 (relative stereo) [Example 59, hydrochloride]: 39 nM
CCC[C@H]1C(=O)N(S(C)(=O)=O)[C@H]2CCN(S(=O)(=O)c3ccc(C(=O)NC4CC4)cc3)[C@H]12 (relative stereo): 13 nM

IC50 for human neutrophil elastase (Homo sapiens, UniProt P08246) with input CC[C@H]1C(=O)N(S(=O)(=O)c2ccc3ccccc3c2)[C@H]2CCN(C(=O)CCN3CCCCC3)[C@H]12 (relative stereo) [Example 5, hydrochloride] equals 205 nM
